Sourced from paper PMC9482650

The entries below are paired with their reported pKd.
- tested-target: T1, SNTA1, Q13424
- T1 sequence (Q13424 82-180, limits assumed, looked up): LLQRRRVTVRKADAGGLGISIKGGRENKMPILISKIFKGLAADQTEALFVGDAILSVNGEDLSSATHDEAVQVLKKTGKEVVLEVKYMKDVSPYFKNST
- procedure-text: holdup assay
- Parameters: key: below the threshold = too weak to quantify, mostly under pKd 3.1 to 4
- stated-conditions: plain residues with an end cap or a label only (N-terminal biotin on a linker: ttds)
Write the number on its own, no unit after it.

Solved cases (5 shown):
binder="GARVSKETPL [MAPK12, P53778]" observation_type=pKd observed_result=4.49
binder="FVETQHQTQV [FAT3, Q8TDW7]" observation_type=pKd observed_result=4.09
binder="PSRDRKETSI [RALBP1, Q15311]" observation_type=pKd observed_result=4.06
binder="SRSRRRETAL [HPV33-E6, P06427]" observation_type=pKd observed_result=4.66
binder="SHSSKGETAV [FZD7, O75084]" observation_type=pKd observed_result=4.34

Task: I'd like to know its pKd. The binder in question is SGGKRKETLV [NET1, Q7Z628]
Output: 4.25

Task: I'd like to know its pKd. The binder in question is QRPYRRESEI [KCNJ12, Q14500]
Output: 3.97

Task: I'd like to know its pKd. The binder in question is SSIDLWETAL [SLC15A5, A6NIM6]
Output: 5.19
